molecular target: T1, Peptide G (rat PAR-2), unbiotinylated (Rat (Rattus norvegicus)); experiment: peptide ELISA titration
T1 construct: also called Peptide G No Biotin
T1 peptide: GPNSKGRSLIGRLDTP
value-type: pEC50
# log scale: pEC50 equals minus log10 of the concentration in mol/L

binder	value-type	experimental-result
H4H584P (antibody, human IgG4, V domains shown, also called H1H584P variable regions) VH: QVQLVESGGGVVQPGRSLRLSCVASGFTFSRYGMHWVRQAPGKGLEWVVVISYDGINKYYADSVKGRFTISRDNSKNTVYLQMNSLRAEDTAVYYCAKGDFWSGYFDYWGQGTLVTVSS VL: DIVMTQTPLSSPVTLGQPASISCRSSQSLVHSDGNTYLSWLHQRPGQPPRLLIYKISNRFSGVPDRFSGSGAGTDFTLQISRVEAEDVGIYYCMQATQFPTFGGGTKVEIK	pEC50	10.89
H4H585P (antibody, human IgG4, V domains shown, also called H1H585P variable regions) VH: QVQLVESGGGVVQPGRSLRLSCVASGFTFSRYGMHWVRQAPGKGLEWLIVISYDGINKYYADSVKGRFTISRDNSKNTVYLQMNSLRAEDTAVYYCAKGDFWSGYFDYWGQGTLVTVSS VL: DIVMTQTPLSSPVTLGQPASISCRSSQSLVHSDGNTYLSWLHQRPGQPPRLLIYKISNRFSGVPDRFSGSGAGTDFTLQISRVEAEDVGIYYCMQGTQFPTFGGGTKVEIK	pEC50	10.74

Please look at the following binder next.
Challenge: State, in one line, measured pEC50 of H4H580P (antibody, human IgG4, V domains shown, also called H1H580P variable regions) VH: QVQLVESGGGVVQPGRSLRLSCVASGFTFSRYGMHWVRQAPGKGLEWVVVISYDGINKYYADSVKGRFTISRDNSKNTVYLQMNSLRAEDTAVYHCAKGDFWSGYFDYWGQGTLVTVSS VL: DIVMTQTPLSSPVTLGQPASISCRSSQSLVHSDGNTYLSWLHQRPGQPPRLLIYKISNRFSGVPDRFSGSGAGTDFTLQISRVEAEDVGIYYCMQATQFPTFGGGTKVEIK
Response given: 9.86
